FYI, the data here is from the supplement of paper PMC10126150.

System: ATP;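 also: ATP exposure 15 min at 22 °C before imaging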
Assay: switch fluorescence ratio, 500 uM ATP over buffer (Cy3 cluster intensity, sum of 5 cycles each) (fold (ratio)); higher = stronger signal-on switching upon ATP binding; sequences stand for … in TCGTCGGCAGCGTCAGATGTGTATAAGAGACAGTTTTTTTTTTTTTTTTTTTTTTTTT…TC
Details: aptamer strand: ATP DNA aptamer (quencher-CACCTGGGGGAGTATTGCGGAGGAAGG + anchor), 100 nM annealed; ATP concentration: 500 uM
Task for the reader: assign each of the following sequences its reported switch fluorescence ratio.
Form rule: numeric answer, no unit written next to it.

[ask] Find the measured switch fluorescence ratio of TGGATTTAAT and report it.
[reply] 1.01

[ask] Report switch fluorescence ratio, nothing else, for this sequence: TGGGTCGGCA
[reply] 1.05

[ask] Annotate the sequence TGTTATTTTG with its measured switch fluorescence ratio.
[reply] 0.989

[ask] Report measured switch fluorescence ratio; entry is GATAGTGAGT
[reply] 0.988

[ask] Please look at this sequence and report its switch fluorescence ratio: GCAGGGCGGG
[reply] 0.99

[ask] Give switch fluorescence ratio for the following sequence: TCCATCTGCG
[reply] 1.1

[ask] Give a short answer stating reported switch fluorescence ratio for TTAGCTGTTT .
[reply] 0.995

[ask] # return recorded switch fluorescence ratio for input TGATGATGAG
[reply] 0.996

[ask] Provide measured switch fluorescence ratio value, entry: TGCAACTTTT
[reply] 1.01

[ask] Give recorded switch fluorescence ratio. ATCGTTGTA
[reply] 1.04

[ask] Input TCGATGTTTC , output reported switch fluorescence ratio.
[reply] 1.01

====

Tested on: ATP;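 also: ATP exposure 15 min at 22 °C before imaging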
Assay: switch fluorescence ratio, 500 uM ATP over buffer (Cy3 cluster intensity, sum of 5 cycles each) (fold (ratio)); higher = stronger signal-on switching upon ATP binding; sequences stand for … in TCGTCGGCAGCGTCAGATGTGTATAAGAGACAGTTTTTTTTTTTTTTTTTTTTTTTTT…TC
Conditions: aptamer strand: ATP DNA aptamer (quencher-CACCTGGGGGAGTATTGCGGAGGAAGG + anchor), 100 nM annealed; ATP concentration: 500 uM
ATTRIBUTE_MEASURED: switch fluorescence ratio
Just the number, please.

[ask] Fetch value of switch fluorescence ratio on ATP for AGATTTCGGC .
[reply] 1.04

[ask] Tell me switch fluorescence ratio of ATGACTTGGG when tested on ATP.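 Also: ATP exposure 15 min at 22 °C before imaging.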
[reply] 0.96

[ask] Provide switch fluorescence ratio, recorded with ATP, of TTTATATGTT
[reply] 1.03

[ask] With ATP as the test system, provide measured switch fluorescence ratio for this sequence: TTCGGAGCTG
[reply] 1.07

[ask] Please indicate recorded switch fluorescence ratio of CAATTTGTGT measured with ATP.
[reply] 0.983

[ask] Give measured switch fluorescence ratio for CATTGATTTT (ATP).
[reply] 1.01

[ask] Enter switch fluorescence ratio (test system ATP) for ATGGTGTATC;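 also: ATP exposure 15 min at 22 °C before imaging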
[reply] 0.981

[ask] Give reported switch fluorescence ratio for GATATACTTT (ATP)
[reply] 0.99

[ask] Param request: switch fluorescence ratio | system ATP | item GTGGGGTCGG;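 also: ATP exposure 15 min at 22 °C before imaging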
[reply] 0.979

[ask] // fetch switch fluorescence ratio for ACATGATTGC ; system: ATP;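 also: ATP exposure 15 min at 22 °C before imaging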
[reply] 1.03

[ask] Under ATP, report switch fluorescence ratio for GAACTCGGCG
[reply] 1.02

[ask] System ATP. Read-out switch fluorescence ratio. Item ATCGTGGGAA . Report value.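 Also: ATP exposure 15 min at 22 °C before imaging.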
[reply] 0.979

[ask] Report switch fluorescence ratio from ATP testing of AAAAGGGA
[reply] 0.982

[ask] Give ATP switch fluorescence ratio for the following sequence: TTGGGGAGAT
[reply] 0.989

[ask] Report switch fluorescence ratio under test system ATP for TAGACGAAAA .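 Also: ATP exposure 15 min at 22 °C before imaging.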
[reply] 1.03

[ask] Find switch fluorescence ratio for ATTTGTTTAT on ATP and write it down.
[reply] 1.09

[ask] Consider the sequence CGGGGTTTGA tested on ATP; state its switch fluorescence ratio.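 Also: ATP exposure 15 min at 22 °C before imaging.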
[reply] 1.02

[ask] Provide switch fluorescence ratio, recorded with ATP, of TCAACTTTTT
[reply] 1.01

[ask] Under ATP, report switch fluorescence ratio for GTGTCTAAAT
[reply] 0.989

[ask] Please indicate recorded switch fluorescence ratio of GCGGCGCTTA measured with ATP.
[reply] 1.02

[ask] Enter measured switch fluorescence ratio, system ATP, for the sequence shown: TTCATTATTT;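 also: ATP exposure 15 min at 22 °C before imaging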
[reply] 1

====

Field: switch fluorescence ratio. Provide a value for each of the sequences that follow.
Test system: ATP;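 also: ATP exposure 15 min at 22 °C before imaging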
Test: switch fluorescence ratio, 500 uM ATP over buffer (Cy3 cluster intensity, sum of 5 cycles each) (fold (ratio)); higher = stronger signal-on switching upon ATP binding; sequences stand for … in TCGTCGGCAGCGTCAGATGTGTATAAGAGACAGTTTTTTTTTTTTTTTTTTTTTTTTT…TC
Conditions: aptamer strand: ATP DNA aptamer (quencher-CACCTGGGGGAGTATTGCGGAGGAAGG + anchor), 100 nM annealed; ATP concentration: 500 uM
Number only, please.

[ask] Provide one value: measured switch fluorescence ratio of TGGGATTGAC
[reply] 1.06

[ask] Tell me measured switch fluorescence ratio for CTGGGGCCTA please.
[reply] 0.982

[ask] Please indicate switch fluorescence ratio recorded for CCGAGGGTTA
[reply] 1.34

[ask] Give me measured switch fluorescence ratio, please, for this sequence: GAAGGCATTC
[reply] 1.06

[ask] Name the recorded switch fluorescence ratio of the sequence listed here: TTTGAGGGGA
[reply] 1

[ask] Identify measured switch fluorescence ratio associated with GCAAGAACGC
[reply] 1.1

[ask] Indicate the recorded switch fluorescence ratio value for this sequence: GAACGTGGAG
[reply] 0.999

[ask] Give a short answer stating reported switch fluorescence ratio for GGCGATCGCG .
[reply] 1.02

[ask] Look up and state reported switch fluorescence ratio for GTGGTCAGGG
[reply] 0.985

[ask] Return switch fluorescence ratio for the following sequence: AATACTGATG
[reply] 1.01

[ask] Specify reported switch fluorescence ratio for the sequence shown: TCGTAGAATA
[reply] 1.01

[ask] Specify switch fluorescence ratio for TTATATAAGT and stop.
[reply] 1.02

[ask] Item TCTGGAGAGG : provide switch fluorescence ratio
[reply] 1.01

[ask] Entry CTGGGTTTAA needs its switch fluorescence ratio filled in; supply it.
[reply] 1.02

[ask] Give me measured switch fluorescence ratio, please, for this sequence: CGCACCTGAG
[reply] 1.23

[ask] Answer with reported switch fluorescence ratio of TTCTTGGGGT
[reply] 0.975

[ask] Supply reported switch fluorescence ratio belonging to this sequence: GGGAAATCGT
[reply] 1.02

[ask] Consider the sequence GGGTATCGGG . State its measured switch fluorescence ratio.
[reply] 0.989

[ask] Please indicate switch fluorescence ratio recorded for AATCAAACAT
[reply] 1.03

[ask] Specify measured switch fluorescence ratio for TGAAAAATTG .
[reply] 0.985

====

Tested on: ATP;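 also: ATP exposure 15 min at 22 °C before imaging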
Assay: switch fluorescence ratio, 500 uM ATP over buffer (Cy3 cluster intensity, sum of 5 cycles each) (fold (ratio)); higher = stronger signal-on switching upon ATP binding; sequences stand for … in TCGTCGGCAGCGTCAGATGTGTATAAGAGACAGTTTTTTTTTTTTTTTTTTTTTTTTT…TC
Conditions: aptamer strand: ATP DNA aptamer (quencher-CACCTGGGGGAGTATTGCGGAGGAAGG + anchor), 100 nM annealed; ATP concentration: 500 uM
Assignment: determine reported switch fluorescence ratio for the given sequences.
When you answer, write just the number.

[ask] Indicate its recorded switch fluorescence ratio; the sequence in question is TGCAGTTTTT
[reply] 0.999

[ask] Annotate the sequence ATTGGTTTCG with its measured switch fluorescence ratio.
[reply] 0.983

[ask] Specify switch fluorescence ratio for TTACGGGGGT and stop.
[reply] 1.02

[ask] Give switch fluorescence ratio for CGTGTATTCT
[reply] 0.968

[ask] Please report the measured switch fluorescence ratio for GTTCGAAAAA
[reply] 0.961

[ask] Give the reported value of switch fluorescence ratio for this record: GCCTGGGGGC
[reply] 0.967

[ask] Give me measured switch fluorescence ratio, please, for this sequence: GGAAAGTCAG
[reply] 0.992

[ask] Specify measured switch fluorescence ratio for TTGAAGGGGA .
[reply] 0.974

[ask] Please look at this sequence and report its switch fluorescence ratio: CGGTGGTCCA
[reply] 0.997

[ask] Using the record for TGGGATATA , state its measured switch fluorescence ratio.
[reply] 1.01

[ask] Give the value of switch fluorescence ratio reported for the following: CATTAAGGGC
[reply] 0.962

[ask] Entry AGTGTAATTT needs its switch fluorescence ratio filled in; supply it.
[reply] 0.973

[ask] Consider the sequence TCATTGGGG . State its measured switch fluorescence ratio.
[reply] 0.974

[ask] Look up switch fluorescence ratio of GGCTCCAACG and report it.
[reply] 1.06

[ask] Indicate its recorded switch fluorescence ratio; the sequence in question is CAGTCTAAGT
[reply] 1.02

[ask] Write down switch fluorescence ratio measured for item TGGGTAGGAT
[reply] 1.02

[ask] Name the recorded switch fluorescence ratio of the sequence listed here: GGGACATGGG
[reply] 0.972

[ask] Note down switch fluorescence ratio recorded for TTTTTTCGGT
[reply] 1.01

[ask] Report measured switch fluorescence ratio; entry is GACTTTTATT
[reply] 0.989

[ask] Give reported switch fluorescence ratio value for TATTAAGCAG
[reply] 1.07

[ask] For the sequence ACGTAATTGT , report switch fluorescence ratio.
[reply] 1.13
